Reference source: patent US20040037843A1

molecular target: HLA-A*0206 (human); test: competition with 125I-labelled standard peptide for purified HLA; settings: remark: other sources report otherwise
EXPERIMENTAL_READOUT: IC50

Request the reported IC50 associated with RMMNDQLMFL [peptide 1126.06, PSM.662]
40 nM
